testSystem: DNA repair and recombination protein RAD54-like (Homo sapiens)
Sequence (Q92698 whole entry): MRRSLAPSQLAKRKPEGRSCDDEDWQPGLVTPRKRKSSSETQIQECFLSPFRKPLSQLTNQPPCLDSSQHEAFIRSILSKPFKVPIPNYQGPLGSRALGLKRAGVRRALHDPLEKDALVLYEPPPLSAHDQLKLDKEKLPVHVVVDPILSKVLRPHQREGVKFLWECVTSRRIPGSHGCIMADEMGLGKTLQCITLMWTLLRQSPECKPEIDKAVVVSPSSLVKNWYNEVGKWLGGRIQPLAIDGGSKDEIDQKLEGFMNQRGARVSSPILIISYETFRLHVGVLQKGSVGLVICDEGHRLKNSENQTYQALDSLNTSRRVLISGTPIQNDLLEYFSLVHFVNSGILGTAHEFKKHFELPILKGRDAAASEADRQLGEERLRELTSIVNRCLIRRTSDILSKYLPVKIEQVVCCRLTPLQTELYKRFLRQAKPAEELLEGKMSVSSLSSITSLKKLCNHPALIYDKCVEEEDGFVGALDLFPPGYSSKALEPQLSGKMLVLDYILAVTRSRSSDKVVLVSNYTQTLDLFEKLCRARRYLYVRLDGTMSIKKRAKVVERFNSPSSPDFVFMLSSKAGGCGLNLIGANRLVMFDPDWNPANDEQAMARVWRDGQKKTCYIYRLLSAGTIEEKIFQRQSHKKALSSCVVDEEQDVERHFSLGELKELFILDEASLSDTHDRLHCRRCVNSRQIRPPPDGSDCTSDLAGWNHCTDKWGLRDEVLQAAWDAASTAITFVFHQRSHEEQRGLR
assayName: inhibitors of human RAD54 branch migration, confirmation, biochemical, fluorescence, cherry-picked samples, dose series (AID 651657)
Assay type: functional
The source made the active and inactive calls. Cut-off read from the data, not from the text of the source: active = AC50 of 100 µM or less and inactive = more.
Property: AC50; scope: individual compounds

A selection of reference data follows.
COc1cccc2c1-c1c(O)cccc1C2=O	66.7 µM (active)
CCNCCNC(=O)c1c(O)c2cccc3c2n(c1=O)CCC3	86.3 µM (active)
COc1ccc2nc3cc(Cl)ccc3c(Nc3cc(CN4CCCC4)c(O)c(CN4CCCC4)c3)c2n1	0.791 µM (active)

Qu. Give AC50 only, for CN(C)CCNC(=O)c1cc2c(=O)n(C)c3ccccc3c2n1C , using DNA repair and recombination protein RAD54-like (Homo sapiens) data.
Ans. 16.2 µM (active)

All figures here come from ChEMBL document CHEMBL1201862.
